Biological target: cytochrome bd-II oxidase subunit AppC (Escherichia coli)
Construct: bd-II oxidase (AppC, AppB, AppX), C-terminal His-tag on AppC; with AppB, AppX
Experiment: duroquinol:O2 oxidoreductase inhibition (Clark electrode)
Type: biochemical
metric: IC50 (nM)
Express it in nM; write the number only.

## Task Fill in: IC50 of CC(C)=CCC/C(C)=C/CC/C(C)=C\Cc1c(C)[nH]c2ccccc2c1=O is ___
## Result 11.1

----------
Target: cytochrome bd-II oxidase subunit AppC (Escherichia coli, UniProt P26459)
Construct: bd-II oxidase (AppC, AppB, AppX), C-terminal His-tag on AppC; with AppB, AppX
Sequence (P24244 whole entry): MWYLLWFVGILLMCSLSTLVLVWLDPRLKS
Sequence (P26458 whole entry, further chain): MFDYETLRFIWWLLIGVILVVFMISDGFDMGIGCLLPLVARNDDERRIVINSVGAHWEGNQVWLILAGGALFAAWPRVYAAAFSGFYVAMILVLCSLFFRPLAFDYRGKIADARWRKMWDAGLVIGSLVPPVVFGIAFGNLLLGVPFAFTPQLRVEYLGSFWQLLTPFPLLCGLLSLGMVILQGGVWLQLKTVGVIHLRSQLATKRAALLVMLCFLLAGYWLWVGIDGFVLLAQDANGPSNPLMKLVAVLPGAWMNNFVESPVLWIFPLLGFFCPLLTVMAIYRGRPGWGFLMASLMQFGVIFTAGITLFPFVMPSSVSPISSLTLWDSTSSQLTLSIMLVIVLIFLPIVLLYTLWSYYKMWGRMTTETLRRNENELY
Sequence (P26459 whole entry): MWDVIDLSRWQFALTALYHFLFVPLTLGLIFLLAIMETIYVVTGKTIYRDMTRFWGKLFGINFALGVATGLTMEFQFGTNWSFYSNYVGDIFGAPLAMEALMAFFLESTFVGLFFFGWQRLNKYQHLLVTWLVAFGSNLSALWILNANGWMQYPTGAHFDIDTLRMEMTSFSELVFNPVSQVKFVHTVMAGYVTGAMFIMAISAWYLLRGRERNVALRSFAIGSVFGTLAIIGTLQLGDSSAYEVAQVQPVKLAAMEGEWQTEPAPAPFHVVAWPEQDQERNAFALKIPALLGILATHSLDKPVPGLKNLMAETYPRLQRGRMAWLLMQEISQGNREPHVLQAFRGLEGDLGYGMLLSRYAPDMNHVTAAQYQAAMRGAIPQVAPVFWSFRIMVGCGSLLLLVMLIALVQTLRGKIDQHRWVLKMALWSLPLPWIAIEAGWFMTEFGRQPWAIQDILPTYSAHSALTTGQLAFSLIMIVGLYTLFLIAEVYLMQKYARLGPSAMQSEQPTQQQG
Assay: duroquinol:O2 oxidoreductase activity of isolated bd-II, Clark-type oxygen electrode
Format: biochemical
metric: pIC50
The meaning of pIC50 here: minus log10 of the concentration in molar units.

## Task Fill in: pIC50 of CC(C)=CCC/C(C)=C/CC/C(C)=C/Cc1c(C)n(O)c2ccccc2c1=O is ___
## Result 8.15
